Parameter: shrunken log2 fold change. Scope: all listed entries.
Tested on: Escherichia coli TOP10;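 further: peptides expressed intracellularly from a pBAD plasmid library in pooled LB shake-flask culture, induced with 0.3% L-arabinose, DNA abundance read by NGS, three biological replicates, DESeq2 with apeglm shrinkage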
EXPERIMENTAL DETAILS: shrunken log2 fold change of peptide-encoding DNA abundance (4.5 h post-induction vs induction); higher = less antimicrobial activity (less host growth inhibition)
CONDITION SUMMARY: time post-induction: 4.5 h; library: site-saturation at positions 5, 18, 19, 20
No unit in the answer, please; the number alone is enough.

Below: 3 sequences and their reported shrunken log2 fold change.
Asked: I'd like to know its shrunken log2 fold change. The sequence in question is RRIRWRPPRLPRPRPRPPYMPRP
Given back: -0.16

Asked: I'd like to know its shrunken log2 fold change. The sequence in question is RRIRSRPPRLPRPRPRPQCHPRP
Given back: -0.113

Asked: I'd like to know its shrunken log2 fold change. The sequence in question is RRIRERPPRLPRPRPRPDQMPRP
Given back: -0.161

Then this sequence:
Asked: I'd like to know its shrunken log2 fold change. The sequence in question is RRIRNRPPRLPRPRPRPIPSPRP
Given back: 0.0499
